Hey, just so you know, these numbers are from patent EP2246331A1.

molecular target: σ2 receptor (Rattus norvegicus, UniProt Q5U3Y7); construct: tissue Harlan Winkelmann; host or cells: rat liver membranes; assay: Receptor binding assay with [3H]-ditolylguanidine on rat liver membranes; conditions: 3 nM [3H]-[…] with 2 µM (+)-pentazocine, 180 min at room temperature, mean ± SEM, read-out: affinity to the σ2 receptor
Sequence (Q5U3Y7 whole entry): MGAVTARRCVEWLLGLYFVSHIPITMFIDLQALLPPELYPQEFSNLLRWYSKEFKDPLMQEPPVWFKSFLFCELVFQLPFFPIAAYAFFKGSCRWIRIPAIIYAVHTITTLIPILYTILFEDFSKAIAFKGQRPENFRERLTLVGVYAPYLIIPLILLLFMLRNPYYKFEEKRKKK
Measured endpoint: pKi
Convention used: pKi is expressed as -log10 of the molar concentration.

q: Returns the measured pKi for the input molecule. Input: COc1ccc2c(c1)CCN(CCCC1(c3ccc(F)cc3)OCC(C)(C)CO1)CC2O (stereo not shown) [formula (11)]
a: 6.99

----------
Measured Ki accompanies every entry in the list below.
target: polyamine binding site of the NR2B subunit of the NMDA receptor (Homo sapiens, UniProt Q05586+Q13224); construct: expressed in transfected cells; host or cells: mouse L(tk-) cells, dexamethasone-induced; gift from D. Steinhilber, University of Frankfurt; assay: Filtration-based receptor binding assay with [3H]-Ifenprodil as radioligand; settings: 5 nM [3H]-Ifenprodil; membrane homogenates of mouse L(tk-) cells transfected with NR1-1a/NR2B; 180 min at 37 °C; values given in µM; read-out: affinity to the NR2B binding site of the NMDA receptor
Sequence (Q13224 27-1484, other chains not shown): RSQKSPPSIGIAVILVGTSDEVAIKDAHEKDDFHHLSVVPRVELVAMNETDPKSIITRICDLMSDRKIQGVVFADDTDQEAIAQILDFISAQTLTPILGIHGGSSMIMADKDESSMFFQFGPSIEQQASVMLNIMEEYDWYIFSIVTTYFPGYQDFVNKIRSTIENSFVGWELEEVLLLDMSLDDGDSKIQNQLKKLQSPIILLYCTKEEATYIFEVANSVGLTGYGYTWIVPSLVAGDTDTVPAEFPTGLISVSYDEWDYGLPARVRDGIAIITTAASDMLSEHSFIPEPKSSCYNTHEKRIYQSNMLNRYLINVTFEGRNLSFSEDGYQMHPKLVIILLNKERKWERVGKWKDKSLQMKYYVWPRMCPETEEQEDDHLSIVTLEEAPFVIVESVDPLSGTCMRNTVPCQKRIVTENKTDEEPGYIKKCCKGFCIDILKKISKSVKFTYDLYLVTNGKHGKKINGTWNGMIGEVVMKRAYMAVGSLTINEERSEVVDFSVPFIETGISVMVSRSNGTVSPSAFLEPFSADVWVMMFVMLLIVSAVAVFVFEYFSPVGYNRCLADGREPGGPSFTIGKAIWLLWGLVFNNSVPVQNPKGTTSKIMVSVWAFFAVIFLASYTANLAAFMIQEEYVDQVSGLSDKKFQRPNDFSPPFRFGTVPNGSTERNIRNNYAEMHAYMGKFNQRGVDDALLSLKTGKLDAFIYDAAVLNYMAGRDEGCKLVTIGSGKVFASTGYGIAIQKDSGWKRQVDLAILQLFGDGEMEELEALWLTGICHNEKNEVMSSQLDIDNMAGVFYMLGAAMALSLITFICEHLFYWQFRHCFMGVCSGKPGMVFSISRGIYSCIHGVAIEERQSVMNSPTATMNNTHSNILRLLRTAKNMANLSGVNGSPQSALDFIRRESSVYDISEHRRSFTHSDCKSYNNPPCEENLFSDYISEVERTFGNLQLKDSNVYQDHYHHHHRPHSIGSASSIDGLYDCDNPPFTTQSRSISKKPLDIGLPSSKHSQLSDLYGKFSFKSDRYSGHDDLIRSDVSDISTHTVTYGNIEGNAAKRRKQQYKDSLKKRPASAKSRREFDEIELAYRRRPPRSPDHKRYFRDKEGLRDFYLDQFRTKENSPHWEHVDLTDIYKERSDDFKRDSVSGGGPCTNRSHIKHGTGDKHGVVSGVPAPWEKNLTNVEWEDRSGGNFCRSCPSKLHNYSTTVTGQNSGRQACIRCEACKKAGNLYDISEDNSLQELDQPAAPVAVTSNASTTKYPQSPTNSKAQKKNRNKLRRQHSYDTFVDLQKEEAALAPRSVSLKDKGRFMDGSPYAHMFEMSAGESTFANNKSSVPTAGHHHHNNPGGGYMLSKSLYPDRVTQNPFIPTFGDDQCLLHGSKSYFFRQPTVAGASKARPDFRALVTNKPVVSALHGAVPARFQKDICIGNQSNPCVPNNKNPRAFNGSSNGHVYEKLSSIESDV
Reply numerically in µM, unit not repeated.

Known Ki results, listed for orientation:
CC1(C)COC(CCCN2CCc3cc(OCc4ccccc4)ccc3C(O)C2)(c2ccc(F)cc2)OC1 (centres unmarked) [formula (15)] | 1.24
COc1ccc2c(c1)CCN(CCCCSc1ccccc1)CC2O (centres unmarked) [formula (7)] | 1.04
COc1ccc2c(c1)CCN(CCCSc1ccccc1)CC2O (centres unmarked) [formula (8)] | 1.88

q: Returns the measured Ki for the input compound. Input: OC1CN(C2CCC(c3ccccc3)CC2)CCc2cc(OCc3ccccc3)ccc21 (centres unmarked) [formula (20)]
a: 2.51

q: Next entry: CN(Cc1ccccc1)C(=O)CN1CCc2cc(O)ccc2C(O)C1 (centres unmarked) [formula (16)]
a: 7.68
